// provenance: PubChem BioAssay AID368

- measuredTarget: M-phase inducer phosphatase 2 (Homo sapiens)
- measurementProtocol: inhibitors of Cdc25B phosphatase catalytic domain, primary screen, biochemical, OMFP fluorescence (AID 368)
- experimentalConditions: recombinant Cdc25B, OMFP fluorescence Ex485/Em525; stronger effect = higher value;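 compounds tested at 10 µM final in the well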
Among all 65,000 compounds or so, about 85 (0.1%) were called active. Shown is part of a subset that was picked to be rich in actives.

smiles	inhibition, %
COC(=O)c1ccc(NC(=O)CSc2nnc(CNc3ccc(OC)cc3)n2C)cc1	-15.2
Fc1ccccc1CCNc1nnnn1-c1ccccc1	0.973
CS(=O)(=O)N(Cc1nc2sc3c(c2c(=O)[nH]1)CCCC3)C1CCCCC1	-20
O=C(Nc1cccc(C(=O)N2CCCC2)c1)c1ccccc1	-4.63
CC(C)Cc1cc(C(=O)NCCc2ccccc2)no1	-7.12

###

# inhibition per entry
- measuredTarget: M-phase inducer phosphatase 2 (Homo sapiens)
- measurementProtocol: inhibitors of Cdc25B phosphatase catalytic domain, primary screen, biochemical, OMFP fluorescence (AID 368)
- experimentalConditions: recombinant Cdc25B, OMFP fluorescence Ex485/Em525; stronger effect = higher value;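 compounds tested at 10 µM final in the well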
Out of some 65,000 compounds screened, about 85 (0.1%) were called active. The list comes from a sample in which actives are over-represented; it also holds close analogues and randomly drawn compounds.
quantityKind: inhibition (%)

molecule	observedResult
Cc1ccc(CNC(=O)CN2CCN(Cc3ccc(Cl)cc3)C2=O)cc1	1.98
CCOC(=O)c1c(C)nc(-c2ccccc2)nc1NC(=O)C(C)C	-5.5
COCCNC(=O)CN(C(=O)CCC(=O)Nc1cc(C)on1)c1ccc(C)cc1C	11.4
CCOC(=O)C(CC)Sc1ncnc2c1nnn2-c1ccc(F)cc1 (centres undefined)	-12.7
CCn1c(NCCc2ccc(OC)c(OC)c2)nc2c1c(=O)n(C)c(=O)n2C	7.88
COc1ccc(-c2noc(-c3cccc(OC)c3OC)n2)cc1OC	-12.3
O=C(N1CCOCC1)N(Cc1ccccc1)c1ccccn1	-13.1
CCOC(=O)c1[nH]cnc1C(=O)NC1CCCCC1	-0.873
COc1ccc(N2C(=O)CN=C2Nc2cccc(C)c2C)cc1OC	-17.1
CC1CCCC(C)N1C(=O)CN1CCN(c2nc(-c3ccc(F)cc3)cs2)CC1 (centres undefined)	-8.69
CC1(C)CC(O)C(CCC(O)c2ccccc2)C(C)(C)N1 (centres undefined)	-23.8
NS(=O)(=O)c1ccc(NS(=O)(=O)/C=C/c2ccccc2)cc1	4.88
Fc1cc(F)c2nc(N3CCOCC3)sc2c1	0.504
CCOC(=O)c1ccn(-c2nc(-c3ccco3)cc(C(F)(F)F)n2)n1	-12.2
Cc1cc(Cl)c(S(=O)(=O)NCc2cccnc2)cc1OCC(N)=O	-3.27
Cc1nnc(SCC(=O)NCCOc2ccc(Cl)cc2)n1-c1ccccc1	-10.1
Cc1cc(NS(=O)(=O)c2ccccc2)no1	-0.238
COCCNC(=O)CSc1nc2c(n1-c1ccccc1)CCCC2	-0.327
O=C(O)CC(Cn1cnnn1)c1ccccc1 (centres undefined)	-6.9
